The measured values listed here are drawn from PubChem BioAssay (NCI).

system: NCI-H322M lung; assay: NCI-60 one-dose screen, 48 h; details: 10 µM unless noted
This is part of a sample that, as a whole, favours compounds with a hit. Of some 83,000 tested, about 20% had one in any assay. Calls of active or inactive are those of the source. How the source made its calls: active means growth percent below 10; inactive means the rest.
Assign a class; possible classes are YES (active), NO (inactive)

Some solved entries appear below for comparison.
INSERT INTO measurements (compound_structure_string, target_system, assigned_label) VALUES
  ('C#Cc1cc(OC)c(C(=O)Nc2ccc(F)cc2C(=O)Nc2cccc(S(=O)(=O)C(F)(F)F)c2)cn1', 'NCI-H322M lung', 'NO'),
  ('C#CCOc1cccc(/C(N)=N/C(N)=N/c2nc3ccccc3s2)c1', 'NCI-H322M lung', 'NO');

Identify the outcome logged in this assay for the molecule shown: `CCOC(=O)C(=O)Nc1ccc2c(ccn2C(=O)c2cccc(F)c2)c1`
NO

Identify the outcome logged in this assay for the molecule shown: `CN1CCN(Cc2ccc(/C=N/Nc3ccnc4cc(Cl)ccc34)cc2)CC1`
NO

Identify the outcome logged in this assay for the molecule shown: `Brc1cc(-c2cc(-c3ccc4c(c3)OCCO4)[nH]n2)cs1`
NO

* * *

system: U251 CNS; assay: NCI-60 one-dose screen, 48 h; details: 10 µM unless noted
Compounds without any hit were thinned out: in the full panel of roughly 83,000, 20% have a hit. Activity calls are given as the source filed them. Rule for the calls: active = growth percent below 10; inactive = the rest.
Assign a class; possible classes are active, inactive

INSERT INTO assay_data (compound, assigned_label) VALUES
  ('CSc1ccc(C(=NNS(=O)(=O)c2ccc(C)cc2)c2ccc(Cl)cc2)cc1', 'inactive'),
  ('C#CCN(C)CCCOc1ccc(NC(=O)CCCCCCC(=O)NO)cc1Cl', 'active'),
  ('O=C1CSC(c2cn(-c3ccccc3)nc2-c2ccc(Cl)cc2)N1c1ccccc1 (stereo not given)', 'inactive');

Identify the outcome logged in this assay for the compound shown: `C#Cc1nc(/C=C/CCCCCCC(=O)NO)cs1`
inactive

Identify the outcome logged in this assay for the compound shown: `CC(=C(c1ccc(OCCN(C)C)cc1)c1ccc(OCCN(C)C)cc1)c1ccc(Cl)cc1`
active

Identify the outcome logged in this assay for the compound shown: `Fc1cccc(Cl)c1/C=N/Nc1nc(N/N=C/c2c(F)cccc2Cl)nc(N2CCCCC2)n1`
inactive

Identify the outcome logged in this assay for the compound shown: `CCCN1C=C/C(=C\C(=O)n2ccc3ccccc32)c2ccccc21`
inactive

Identify the outcome logged in this assay for the compound shown: `NS(=O)(=O)c1ccc(Nc2nc(N/N=C/C=C/c3ccccc3)nc(Nc3ccccc3)n2)cc1`
inactive

Identify the outcome logged in this assay for the compound shown: `CC1=C(C)C(=O)C(Nc2cccc(C(F)(F)F)c2)=C(Br)C1=O`
inactive

Identify the outcome logged in this assay for the compound shown: `O=S(=O)(NCCCNc1nccc(-c2[nH]c(-c3ccccc3)nc2-c2ccc(F)c(O)c2)n1)c1ccccc1`
inactive

* * *

test system: SF-268 CNS; experiment: NCI-60 one-dose screen, 48 h (100 = growth as untreated, 0 = no growth, -100 = all killed); details: 10 µM unless noted
This is part of a sample that, as a whole, favours compounds with a hit. Of some 83,000 tested, about 20% had one in any assay. The source made the active and inactive calls. How the source made its calls: active means growth percent below 10; inactive means the rest.
MEASUREMENT NAME: growth

Worked examples, 2 compounds total:
INSERT INTO measurements (compound, assay_value) VALUES
  ('COc1ccc(C2CC(c3cccc(OCCCCOc4cccc(C5=NOC(c6ccc(OC)cc6)C5)c4)c3)=NO2)cc1 (stereo not drawn)', '108% (inactive)'),
  ('COc1ccccc1Cn1cc(C#N)c(N)c1C(=O)c1ccc(Br)cc1', '96.2% (inactive)');

Moving on to the next compound.
Using the record for `O=C1[C@@H]2Cc3c([nH]c4ccccc34)[C@@H](c3ccc(Cl)cc3)N2C(=O)CN1C1CCN(Cc2ccccc2)CC1` , report its growth.
48% (inactive)
